The measured values listed here are drawn from paper PMC6230944.

Target: ERF5 (Solanum lycopersicum, UniProt Q6Q4I4 1-244)
Sequence (Q6Q4I4 entry or part of it): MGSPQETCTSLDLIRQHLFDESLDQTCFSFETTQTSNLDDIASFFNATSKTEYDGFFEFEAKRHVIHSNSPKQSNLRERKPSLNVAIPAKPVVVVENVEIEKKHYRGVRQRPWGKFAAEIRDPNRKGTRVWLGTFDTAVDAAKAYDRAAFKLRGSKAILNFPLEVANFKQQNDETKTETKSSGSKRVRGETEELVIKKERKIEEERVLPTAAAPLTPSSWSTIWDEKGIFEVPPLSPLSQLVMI
Experiment: EMSA; EMSA Kit with SYBR Green & SYPRO Ruby stains (Invitrogen), per kit instructions; buffer, salt, pH, temperature not stated
Details: protein: recombinant; tags: pET-32a vector fusion (His control used); label: none (SYBR Green stain)
Endpoint: binding result

• ATG18h-competitor (mutated DRE) (dsDNA) DNA 1: GCGGTGAAAAGATTGACGGACGAAACGTGA DNA 2: TCACGTTTCGTCCGTCAATCTTTTCACCGC = no binding
• ATG8d promoter probe (WT DRE) (dsDNA) DNA 1: TCACGTTACATATGACCGACATAAAGATAA DNA 2: TTATCTTTATGTCGGTCATATGTAACGTGA = binds
• ATG8d-competitor (mutated DRE) (dsDNA) DNA 1: TCACGTTACATATGACAAACATAAAGATAA DNA 2: TTATCTTTATGTTTGTCATATGTAACGTGA = no binding
• ATG18h promoter probe (WT DRE) (dsDNA) DNA 1: GCGGTGAAAAGACCGACGGACGAAACGTGA DNA 2: TCACGTTTCGTCCGTCGGTCTTTTCACCGC = binds
